Quick reference: IC50 of the listed items.
experimental_target: wild type AR (Wild) (Homo sapiens, UniProt P10275)
Sequence (P10275 whole entry): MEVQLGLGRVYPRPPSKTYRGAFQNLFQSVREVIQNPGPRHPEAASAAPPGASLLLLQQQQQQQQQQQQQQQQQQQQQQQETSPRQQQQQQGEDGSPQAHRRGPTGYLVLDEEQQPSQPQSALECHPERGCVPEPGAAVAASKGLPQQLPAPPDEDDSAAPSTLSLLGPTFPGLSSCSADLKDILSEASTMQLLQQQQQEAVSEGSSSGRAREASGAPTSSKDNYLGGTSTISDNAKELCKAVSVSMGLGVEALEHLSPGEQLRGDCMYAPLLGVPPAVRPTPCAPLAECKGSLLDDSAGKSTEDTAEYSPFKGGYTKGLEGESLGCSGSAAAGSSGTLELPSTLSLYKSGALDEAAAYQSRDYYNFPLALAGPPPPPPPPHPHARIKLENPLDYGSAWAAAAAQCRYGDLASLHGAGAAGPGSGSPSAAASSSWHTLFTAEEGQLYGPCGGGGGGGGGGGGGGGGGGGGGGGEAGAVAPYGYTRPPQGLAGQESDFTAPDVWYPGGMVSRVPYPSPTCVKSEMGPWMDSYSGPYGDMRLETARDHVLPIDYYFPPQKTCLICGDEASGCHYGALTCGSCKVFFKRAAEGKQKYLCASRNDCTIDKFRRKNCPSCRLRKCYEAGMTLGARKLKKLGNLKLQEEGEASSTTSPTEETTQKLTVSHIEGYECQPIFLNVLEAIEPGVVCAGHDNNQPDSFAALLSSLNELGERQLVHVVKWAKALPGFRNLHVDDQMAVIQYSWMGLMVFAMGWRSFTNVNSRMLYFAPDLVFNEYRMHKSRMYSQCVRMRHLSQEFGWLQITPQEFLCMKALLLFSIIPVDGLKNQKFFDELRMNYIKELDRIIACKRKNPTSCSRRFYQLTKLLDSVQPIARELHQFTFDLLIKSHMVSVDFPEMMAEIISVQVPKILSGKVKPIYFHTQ
experiment_description: Inhibitory action against transcriptional activation of AR (luciferase reporter, CHO-K1 cells, DHT 0.3 nM)
Report only the number, with the unit nM understood.

# compound, unit, IC50
rows = [
    ("COc1cc(NC(=O)N2C[C@H](C)N(c3ccc(C#N)c(Br)c3)C[C@H]2C)cc(C)n1", "nM", 11),
    ("COc1cc(N2C[C@@H](C)N(C(=O)Nc3cc(C)nc(C)n3)C[C@@H]2C)ccc1C#N", "nM", 76),
    ("C[C@@H]1CN(c2ccc(C#N)c(Cl)c2)[C@@H](C)CN1C(=O)Nc1cnc(N2CCCCC2)nc1", "nM", 17),
    ("CC(C)Oc1cc(N2C[C@@H](C)N(C(=O)Nc3cnc(C4CC4)nc3)C[C@@H]2C)ccc1C#N [Ref 1-1, reference compound]", "nM", 140),
]

Enquiry: Field request: IC50 | item: COc1ncc(NC(=O)N2C[C@H](C)N(c3ccc(C#N)c(Br)c3)C[C@H]2C)cn1
Return: 26

Enquiry: Request: COc1cc(NC(=O)N2C[C@H](C)N(c3ccc(C#N)c(Cl)c3)C[C@H]2C)cc(C)n1
Return: 10

Enquiry: Now the same for C[C@@H]1CN(c2ccc(C#N)c(Cl)c2)[C@@H](C)CN1C(=O)Nc1cnc2ccccc2n1 [Ref 1-3, reference compound]
Return: 51

Enquiry: Record: COc1cc(N2C[C@@H](C)N(C(=O)Nc3nc(C)cc(O)n3)C[C@@H]2C)ccc1C#N [Ref 1-2, reference compound]
Return: 58

Enquiry: Same again, this time with Cc1cc(NC(=O)N2C[C@H](C)N(c3ccc(C#N)c(Cl)c3)C[C@H]2C)cc(Cl)n1
Return: 45
